- system under test: T1, mouse FAP on CHOK1 cells (mouse, UniProt P97321 1-761)
- T1 construct: whole, on cells; also called cell surface mouse FAP
- T1 sequence (P97321 whole entry): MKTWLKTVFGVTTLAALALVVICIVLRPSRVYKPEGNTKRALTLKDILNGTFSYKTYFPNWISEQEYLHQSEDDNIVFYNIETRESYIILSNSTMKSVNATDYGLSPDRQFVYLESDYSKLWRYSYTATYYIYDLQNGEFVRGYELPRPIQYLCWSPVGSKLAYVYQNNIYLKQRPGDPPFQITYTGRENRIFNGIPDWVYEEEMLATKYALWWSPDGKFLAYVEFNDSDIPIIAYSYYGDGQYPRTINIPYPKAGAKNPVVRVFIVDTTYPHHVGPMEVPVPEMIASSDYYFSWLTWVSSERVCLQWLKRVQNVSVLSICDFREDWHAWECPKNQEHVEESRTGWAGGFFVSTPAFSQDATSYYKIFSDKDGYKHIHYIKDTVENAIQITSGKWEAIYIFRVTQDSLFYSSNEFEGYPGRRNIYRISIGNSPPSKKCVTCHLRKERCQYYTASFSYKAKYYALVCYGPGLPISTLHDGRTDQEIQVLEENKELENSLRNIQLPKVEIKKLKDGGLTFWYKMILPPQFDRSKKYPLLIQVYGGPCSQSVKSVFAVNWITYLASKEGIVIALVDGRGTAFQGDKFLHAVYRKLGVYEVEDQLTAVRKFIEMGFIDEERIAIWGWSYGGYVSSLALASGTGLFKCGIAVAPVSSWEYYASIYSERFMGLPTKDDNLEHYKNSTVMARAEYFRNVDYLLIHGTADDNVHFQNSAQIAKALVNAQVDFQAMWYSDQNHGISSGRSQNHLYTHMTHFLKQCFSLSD
- test protocol: FACS, percent of marked cells overexpressing mouse FAP, anti-hIgG Alexa Fluor-647 secondary antibody
- Procedure: A FACS assay was used to measure the binding properties of anti-FAP antibodies on cells. The assay comprises the following steps: A CHO cell line overexpressing human FAP was constructed and plated (1E5/well). The test antibodies were added at 100 μL/well. The highest concentration was 100 nM. A 5-fold dilution was performed, yielding 8 concentrations in total. The plate was incubated at 4° C. for 1 h. Anti-hIgG Alexa Fluor-647 was added as a secondary antibody in the ratio of 1:500. […]
reported endpoint: EC50 (read off the curve)

Look at this binder and give its reported EC50 (read off the curve). Ab14 (antibody, human IgG1, kappa, L234A L235A, V domains shown, Fully human, IgG1 / kappa; also called anti-FAP antibody Ab14; Ab114) VH: QVQLQQSGVEVKKPGASVTVSCRASGYSFADHFIHWVRQAPGQGFQWMGWINPNRGVTHHAQDFQGRVAMTRDMSTDTVYMELTSLRSDDTAVYYCARDASLTARPYYFYGFDVWGQGTLVTVSS VL: EIVLTQSPSSVSASVGDRVTITCRASQGISSWLAWYQQKPGKAPKLLIYAASSLQSGVPSRFSGSGSGTDFTLTISSLQPEDFATYYCQQANSFPLTFGGGTKVEIKR
~8 ng/mL
